Here the recorded cAMP Rel EC50 (in the presence of 1% HSA) is given for each entry.
# study.system: hGLP-1R (Homo sapiens, UniProt P43220)
# Sequence (P43220 24-463): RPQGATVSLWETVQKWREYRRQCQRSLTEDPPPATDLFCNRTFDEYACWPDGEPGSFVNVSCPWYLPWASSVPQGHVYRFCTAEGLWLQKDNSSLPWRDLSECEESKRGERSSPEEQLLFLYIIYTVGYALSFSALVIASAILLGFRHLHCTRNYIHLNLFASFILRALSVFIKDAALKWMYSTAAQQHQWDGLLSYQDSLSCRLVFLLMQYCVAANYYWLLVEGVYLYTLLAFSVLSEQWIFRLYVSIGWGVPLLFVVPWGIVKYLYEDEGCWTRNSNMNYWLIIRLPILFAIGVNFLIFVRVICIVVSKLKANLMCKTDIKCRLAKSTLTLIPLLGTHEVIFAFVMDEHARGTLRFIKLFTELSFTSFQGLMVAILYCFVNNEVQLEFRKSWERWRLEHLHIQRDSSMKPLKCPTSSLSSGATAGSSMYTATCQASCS
# assay.summary: cell-based or functional assay
Starred links: 1 amine or outer side, 2 acyl side, 3 side chain; linkers in the order of their positions; H or OH if unused. Non-standard residues stand in square brackets, D forms with d. Groups on a side chain read outwards from the residue. No end group written: not given here. *: point of attachment. C20 diacid = O=C(O)CCCCCCCCCCCCCCCCCCC(=O)*; αMePhe(2-F) = C[C@](N)(Cc1ccccc1F)C(=O)O; γGlu = O=C(O)[C@H](CCC(=O)[*:2])N[*:1]; AEEA = NCCOCCOCC(=O)O; Aib = CC(C)(N)C(=O)O
The answer is to be given in nM; state only the numeric part.

Recorded results for 4 binders are shown here.
{"columns": ["binder", "result.value"],
 "data": [
  ["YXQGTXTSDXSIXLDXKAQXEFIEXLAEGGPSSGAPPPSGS (acylated lysine (γ-Glu)2 C18 diacid; non-natural residues; C-terminal amide; synthetic construct; SITE 2: note = 2-Aminoisobutyric Acid; SITE 6: note = alpha-methyl-2-fluoro-L-phenylalanine; SITE 10: note = 3-(4-Pyridyl)-L-alanine; SITE 13: note = alpha-methyl-leucine; SITE 16: note = L-ornithine; SITE 17: note = Lysine is chemically modified through conjugation of the epsil) [Example 646]", 90.5],
  ["Y[Aib]QGT[αMePhe(2-F)]TSDYSILLDKIAQK([AEEA-γGlu-C20 diacid])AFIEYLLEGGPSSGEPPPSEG-NH2 [Example 293]", 295],
  ["YXQGTFTSDFSKXLDKKAQXAFIEYLLAGGPSSGEPPPSSG (synthetic construct; SITE 2: note = 2-Aminoisobutyric Acid; SITE 13: note = alpha-methyl-leucine; SITE 17: note = Lysine is chemically modified through conjugation of the epsilon-amino group of the Lysine side chain with (2-[2-(2-Amino-ethoxy)-ethoxy]-acetyl)-(gamma-Glu)-CO-(CH2) 18-CO2H; SITE 20: n) [Example 7]", 494],
  ["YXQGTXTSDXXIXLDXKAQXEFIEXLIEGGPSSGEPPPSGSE (Aib, αMeF, 4Pal, αMeS, αMeL, Orn, Me4Pal, αMeY, acyl, amide; synthetic construct; SITE 2: note = 2-Aminoisobutyric Acid; SITE 6: note = alpha-methyl-L-phenylalanine; SITE 10: note = 3-(4-Pyridyl)-L-alanine; SITE 11: note = alpha-methyl-L-serine; SITE 13: note = alpha-methyl-leucine; SITE 16: note = L-ornithine; SITE 17: note = Lysine is chemically modified th) [Example 1167]", 89.2]
]}

[Q] Consider the binder YXQGTXTSDXXIXLDXKAQXEFIEXLIEGGPPSGEPPPEGE (Aib, αMeF(2F), 4Pal, Orn, αMe residues, acylated Lys, amide; synthetic construct; SITE 2: note = 2-Aminoisobutyric Acid; SITE 6: note = alpha-methyl-2-fluoro-L-phenylalanine; SITE 10: note = 3-(4-Pyridyl)-L-alanine; SITE 11: note = alpha-methyl-L-serine; SITE 13: note = alpha-methyl-leucine; SITE 16: note = L-ornithine; SITE 17: note = Lysine is chemically mo) [Example 1191] . State its measured cAMP Rel EC50 (in the presence of 1% HSA).
[A] 82.3

[Q] Consider the binder YXQGTFTSDFSKXLDKKAQXAFIEWLLEGGPSSGAPPPSEG (synthetic construct; SITE 2: note = 2-Aminoisobutyric Acid; SITE 13: note = alpha-methyl-leucine; SITE 17: note = Lysine is chemically modified through conjugation of the epsilon-amino group of the Lysine side chain with (2-[2-(2-Amino-ethoxy)-ethoxy]-acetyl)-(gamma-Glu)-CO-(CH2) 18-CO2H; SITE 20: n) [Example 37] . State its measured cAMP Rel EC50 (in the presence of 1% HSA).
[A] 514

[Q] Consider the binder YXQGTXTSDXXIXLDXKAQXEFIEXLVEGGPSSGAPPPSGSE (Lys acylated (γGlu)2-C18 diacid; non-natural residues; C-amide; synthetic construct; SITE 2: note = 2-Aminoisobutyric Acid; SITE 6: note = alpha-methyl-2-fluoro-L-phenylalanine; SITE 10: note = 3-(4-Pyridyl)-L-alanine; SITE 11: note = alpha-methyl-L-serine; SITE 13: note = alpha-methyl-leucine; SITE 16: note = L-ornithine; SITE 17: note = Lysine is chemically mo) [Example 1162] . State its measured cAMP Rel EC50 (in the presence of 1% HSA).
[A] 34.5

[Q] Consider the binder YXQGTFTSDFSKXLDKKAQXAFIEYLLAGGPSSGAPPPSSG (synthetic construct; SITE 2: note = 2-Aminoisobutyric Acid; SITE 13: note = alpha-methyl-leucine; SITE 17: note = Lysine is chemically modified through conjugation of the epsilon-amino group of the Lysine side chain with (2-[2-(2-Amino-ethoxy)-ethoxy]-acetyl)-(gamma-Glu)-CO-(CH2) 18-CO2H; SITE 20: n) [Example 13] . State its measured cAMP Rel EC50 (in the presence of 1% HSA).
[A] 282

[Q] Consider the binder YXQGTFTSDFSKXLDKKAQXAFIEYLLAGGPSSGAPPPGGE (synthetic construct; SITE 2: note = 2-Aminoisobutyric Acid; SITE 13: note = alpha-methyl-leucine; SITE 17: note = Lysine is chemically modified through conjugation of the epsilon-amino group of the Lysine side chain with (2-[2-(2-Amino-ethoxy)-ethoxy]-acetyl)-(gamma-Glu)-CO-(CH2) 18-CO2H; SITE 20: n) [Example 15] . State its measured cAMP Rel EC50 (in the presence of 1% HSA).
[A] 276

[Q] Consider the binder YXQGTFTSDFSKXLDKKAQXAFIEWLLAGGPSSGEPPPSEG (synthetic construct; SITE 2: note = 2-Aminoisobutyric Acid; SITE 13: note = alpha-methyl-leucine; SITE 17: note = Lysine is chemically modified through conjugation of the epsilon-amino group of the Lysine side chain with (2-[2-(2-Amino-ethoxy)-ethoxy]-acetyl)-(gamma-Glu)-CO-(CH2) 18-CO2H; SITE 20: n) [Example 20] . State its measured cAMP Rel EC50 (in the presence of 1% HSA).
[A] 326

[Q] Consider the binder YXQGTXTSDXXIXLDXKAQXEFIEXLIEGGPPSXEPPPSGSE (non-natural residues, acylated Lys (AEEA-γGlu-C18 diacid), C-terminal amide; synthetic construct; SITE 2: note = 2-Aminoisobutyric Acid; SITE 6: note = alpha-methyl-2-fluoro-L-phenylalanine; SITE 10: note = 3-(4-Pyridyl)-L-alanine; SITE 11: note = alpha-methyl-L-serine; SITE 13: note = alpha-methyl-leucine; SITE 16: note = L-ornithine; SITE 17: note = Lysine is chemically mo) [Example 1200] . State its measured cAMP Rel EC50 (in the presence of 1% HSA).
[A] 91.4
